test system: LOX IMVI melanoma; experiment: NCI tumour cell line growth inhibition, 48 h
Hi there, I'd appreciate the recorded TGI for every entry that follows.

Item under review: `CNS(=O)(=O)NN(C)S(=O)(=O)c1ccc(F)cc1` . Reported TGI?
> 100 µM

Item under review: `c1cc(-c2cn3ccsc3n2)ccn1` . Reported TGI?
> 100 µM

Item under review: NC(CSCc1ccccc1)C(=O)O (centres undefined) . Reported TGI?
> 100 µM

Item under review: `O=CNc1c(Cl)cc2c(c1Cl)Cc1cc([N+](=O)[O-])ccc1-2` . Reported TGI?
> 54.7 µM

Item under review: `O=c1cc(/C=C/c2ccc(O)c(O)c2)oc(/C=C/c2ccc(O)c(O)c2)c1` . Reported TGI?
> 25.2 µM

Item under review: CC(=O)NC(CCCNCc1ccccc1)C(=O)NCc1ccccc1 (centres undefined) . Reported TGI?
> 100 µM

Item under review: `COc1ccc(Nc2nc3ccc(C(F)(F)F)cc3nc2C(=O)O)cc1OC` . Reported TGI?
> 100 µM

Item under review: CCCCOC(C)(C)/C=C/C(O)[C@](C)(O)[C@H]1[C@H](O)C[C@@]2(C)[C@@H]3CCc4c(cc(OC5OC(CO)C(O)C(O)C5O)c(O)c4C)C3(C)C(=O)C[C@]12C (some centres undefined) . Reported TGI?
> 100 µM

Item under review: `Nc1ccn(Cc2ccc(C34CC5CC(CC(C5)C3)C4)c(O)c2)c(=O)n1` . Reported TGI?
> 100 µM

* * *

test system: NCI/ADR-RES ovarian; experiment: NCI tumour cell line growth inhibition, 48 h
reported metric: TGI

Item under review: COc1cc2c(cc1OC)C1c3ccccc3CCN1CC2 (stereo not given) . Reported TGI?
> 100 µM

Item under review: `C1CCSCCCCSCCCCSCCCCSC1` . Reported TGI?
> 100 µM

Item under review: `COc1ccc(Nc2nc3ccc(C(F)(F)F)cc3nc2C(=O)O)cc1OC` . Reported TGI?
57.5 µM

Item under review: `O=C1CCC(=Nc2ccc(Cl)cc2)N1C(=O)COc1ccc(OCC(=O)N2C(=O)CSC2=Nc2ccc(Cl)cc2)cc1` . Reported TGI?
> 100 µM

Item under review: O=C(NC(Cc1c[nH]c2ccccc12)C(=O)O)/C(=C/c1ccccc1O)NC(=O)c1ccccc1 (stereo not given) . Reported TGI?
39.7 µM

Item under review: `COC(=O)c1ccccc1/C=C1/Cc2ccccc2C1=O` . Reported TGI?
> 100 µM

Item under review: `CC(C)NC[C@@H](C(=O)N1CCN(c2ncnc3c2[C@H](C)C[C@H]3O)CC1)c1ccc(Cl)cc1` . Reported TGI?
> 100 µM

Item under review: `CCSC1=CC(=O)c2nc3ccccc3c3ccnc1c23` . Reported TGI?
> 30.1 µM

Item under review: `CN(CCCN)CCCNc1nc2ccccc2c2[nH]c3ccccc3c12` . Reported TGI?
10.8 µM

Item under review: `CNC(=O)n1ccc2cc(Oc3ccnc(NC(=O)c4ccc(C5CCN(CCO)CC5)cc4)c3)c(OCCOC)cc21` . Reported TGI?
42.4 µM

Item under review: C[C@@H](C(=O)Nc1ccc(Cl)cc1)C1CCC(c2ccnc3ccc(F)cc23)CC1 (stereo not given in full) . Reported TGI?
48 µM

Item under review: `CC(C)(C)NC(=O)[C@H]1CC[C@H]2[C@@H]3CC=C4NC(=O)CC[C@]4(C)[C@H]3CC[C@]12C` . Reported TGI?
> 100 µM

Item under review: `CCOC(=O)c1[nH]cc(C)c1-c1ccn(-c2ccccc2)c1` . Reported TGI?
> 100 µM

Item under review: `CC1(C)C(c2ccccc2)=[N+]([O-])C(C)(C)N1O` . Reported TGI?
> 10 µM

Item under review: CN(C)C(CN)CC1=C(CC(CN)N(C)C)CCC1 (stereo not given) . Reported TGI?
> 100 µM

Item under review: CC1SC(c2c(Cl)cccc2Cl)N(NC(=O)c2[nH]c3ccc(F)cc3c2-c2ccccc2)C1=O (stereo not given) . Reported TGI?
4.8 µM

Item under review: `COc1cccc(/C=C/C(=O)c2cccc(Nc3nc(Nc4ccccc4)nc(Nc4ccccc4)n3)c2)c1` . Reported TGI?
> 100 µM

Item under review: `O=C(CN1CCCCC1)CC(O)(C(F)(F)F)C(F)(F)F` . Reported TGI?
> 100 µM

Item under review: COC1(C(=O)N[C@@H](C)c2ccc(-n3cc(F)cn3)nc2)CCC(c2nc(C)cc(Nc3cc(C)[nH]n3)n2)CC1 (stereo not given in full) . Reported TGI?
17.7 µM

Item under review: COP(=O)(O)/C=C/C(NC(=O)C(Cl)(Cl)Cl)c1ccccc1 (stereo not given) . Reported TGI?
> 100 µM

Values were extracted from PubChem BioAssay (NCI).
